# Experiment Notes: phase I two-part drug-drug interaction study, plasma pharmacokinetics (Example 1)
# Assay type: in vivo, human
# Condition Description: male, human, plasma, oral, 200 mg belumosudil single dose + rabeprazole; read-out: AUC0-24, geometric mean (geometric CV %)
Measurement Type: AUC from 0 to 24 h (ng·h/mL)
Answers are plain numbers, in ng·h/mL.

Endpoint output: AUC from 0 to 24 h of CC(C)NC(=O)COc1cccc(-c2nc(Nc3ccc4[nH]ncc4c3)c3ccccc3n2)c1 [Belumosudil] . Value? 1510

---

# Experiment Notes: phase I two-part drug-drug interaction study, plasma pharmacokinetics (Example 1)
# Assay type: in vivo, human
# Condition Description: male, human, plasma, oral, 200 mg, 200 mg belumosudil BID alone, first dose; read-out: Cmax, geometric mean (geometric CV %)
Measurement Type: Cmax
# do not omit the unit; it follows the number

Endpoint output: Cmax of CC(C)NC(=O)COc1cccc(-c2nc(Nc3ccc4[nH]ncc4c3)c3ccccc3n2)c1 . Value? 1790 ng/mL

---

# Experiment Notes: relative bioavailability/food effect study, tablet and capsule (KD025-106)
# Format: in vivo, human
# Condition Description: male, human, plasma, oral, 200 mg, 200 mg tablet, fed; read-out: Tmax, median (range)
Measurement Type: Tmax (h)
One number for each entry, in h.

Endpoint output: Tmax of CC(C)NC(=O)COc1cccc(-c2nc(Nc3ccc4[nH]ncc4c3)c3ccccc3n2)c1 . Value? 2.5

---

# Experiment Notes: relative bioavailability/food effect study, tablet and capsule (KD025-106)
# Type: in vivo, human
# Condition Description: male, human, plasma, oral, 200 mg, 200 mg tablet, fed; read-out: AUCinf, geometric mean (geometric CV %)
# Experimental: Both studies were single-center, open-label, randomized, single dose crossover studies in healthy males. In the second, relative bioavailability/food effect study, both the marketed tablets and earlier formulation capsules were investigated. For Treatments B and C, before dosing, subjects consumed a high-fat breakfast consisting of a hash brown, bacon, fried egg, white bread, and 240 mL of full fat milk over 25 minutes. […]
Measurement Type: AUC(0-inf) (ng·h/mL)
Answers are plain numbers, in ng·h/mL.

Endpoint output: AUC(0-inf) of CC(C)NC(=O)COc1cccc(-c2nc(Nc3ccc4[nH]ncc4c3)c3ccccc3n2)c1 . Value? 10100

---

# Experiment Notes: relative bioavailability/food effect study, tablet and capsule (KD025-106)
# Type: in vivo, human
# Condition Description: male, human, plasma, oral, 200 mg, 200 mg tablet, fed; read-out: t1/2, geometric mean (geometric CV %) (converted)
Measurement Type: half-life

Endpoint output: half-life of CC(C)NC(=O)COc1cccc(-c2nc(Nc3ccc4[nH]ncc4c3)c3ccccc3n2)c1 [Belumosudil] . Value? 6.98 h

---

# Experiment Notes: relative bioavailability/food effect study, tablet and capsule (KD025-106)
# Type: in vivo, human
# Condition Description: male, human, plasma, oral, 200 mg, 200 mg tablet, fed; read-out: AUClast, geometric mean (geometric CV %)
Measurement Type: AUC(0-t) (ng·h/mL)
Give bare numbers, in ng·h/mL.

Endpoint output: AUC(0-t) of CC(C)NC(=O)COc1cccc(-c2nc(Nc3ccc4[nH]ncc4c3)c3ccccc3n2)c1 . Value? 9750

---

# Experiment Notes: phase I two-part drug-drug interaction study, plasma pharmacokinetics (Example 1)
# Format: in vivo, human
# Condition Description: male, human, plasma, oral, 200 mg belumosudil single dose + rifampicin; read-out: t1/2, geometric mean (geometric CV %) (converted)
Measurement Type: half-life (h)
Answers are plain numbers, in h.

Endpoint output: half-life of CC(C)NC(=O)COc1cccc(-c2nc(Nc3ccc4[nH]ncc4c3)c3ccccc3n2)c1 . Value? 2.17

---

# Experiment Notes: phase I two-part drug-drug interaction study, plasma pharmacokinetics (Example 1)
# Assay type: in vivo, human
# Condition Description: male, human, plasma, oral, 200 mg belumosudil single dose + rabeprazole; read-out: AUC0-24, arithmetic mean (SD)
Measurement Type: AUC from 0 to 24 h (ng·h/mL)
Numbers only, in ng·h/mL.

Endpoint output: AUC from 0 to 24 h of CC(C)NC(=O)COc1cccc(-c2nc(Nc3ccc4[nH]ncc4c3)c3ccccc3n2)c1 [Belumosudil] . Value? 1730

---

# Experiment Notes: phase I two-part drug-drug interaction study, plasma pharmacokinetics (Example 1)
# Type: in vivo, human
# Condition Description: male, human, plasma, oral, 200 mg belumosudil single dose + itraconazole; read-out: Cmax, geometric mean (geometric CV %)
Measurement Type: Cmax (ng/mL)
Give bare numbers, in ng/mL.

Endpoint output: Cmax of CC(C)NC(=O)COc1cccc(-c2nc(Nc3ccc4[nH]ncc4c3)c3ccccc3n2)c1 . Value? 2130

---

# Experiment Notes: phase I two-part drug-drug interaction study, plasma pharmacokinetics (Example 1)
# Type: in vivo, human
# Condition Description: male, human, plasma, oral, 200 mg belumosudil single dose + rabeprazole; read-out: Tmax, median (range)
Measurement Type: Tmax (h)
One number for each entry, in h.

Endpoint output: Tmax of CC(C)NC(=O)COc1cccc(-c2nc(Nc3ccc4[nH]ncc4c3)c3ccccc3n2)c1 [Belumosudil] . Value? 5

---

# Experiment Notes: phase I two-part drug-drug interaction study, plasma pharmacokinetics (Example 1)
# Assay type: in vivo, human
# Condition Description: male, human, plasma, oral, 200 mg, 200 mg belumosudil BID alone; read-out: t1/2, arithmetic mean (SD) (converted)
Measurement Type: half-life (h)
Give bare numbers, in h.

Endpoint output: half-life of CC(C)NC(=O)COc1cccc(-c2nc(Nc3ccc4[nH]ncc4c3)c3ccccc3n2)c1 . Value? 7.15

---

# Experiment Notes: relative bioavailability/food effect study, tablet and capsule (KD025-106)
# Type: in vivo, human
# Condition Description: male, human, plasma, oral, 200 mg, 200 mg tablet, fed; read-out: Cmax, geometric mean (geometric CV %)
Measurement Type: Cmax
# do not omit the unit; it follows the number

Endpoint output: Cmax of CC(C)NC(=O)COc1cccc(-c2nc(Nc3ccc4[nH]ncc4c3)c3ccccc3n2)c1 . Value? 2100 ng/mL

---

# Experiment Notes: phase I two-part drug-drug interaction study, plasma pharmacokinetics (Example 1)
# Type: in vivo, human
# Condition Description: male, human, plasma, oral, 200 mg, 200 mg belumosudil BID alone, second dose; read-out: Cmax, arithmetic mean (SD)
Measurement Type: Cmax (µg/mL)
One number for each entry, in µg/mL.

Endpoint output: Cmax of CC(C)NC(=O)COc1cccc(-c2nc(Nc3ccc4[nH]ncc4c3)c3ccccc3n2)c1 . Value? 1.87

---

# Experiment Notes: phase I two-part drug-drug interaction study, plasma pharmacokinetics (Example 1)
# Type: in vivo, human
# Condition Description: male, human, plasma, oral, 200 mg belumosudil single dose + rabeprazole; read-out: Cmax, arithmetic mean (SD)
# Method: The secondary objective was to provide additional information on the safety and tolerability of this dose regimen in healthy males. This was a single center, non-randomized, DDI study in 35 (Part 1) and 38 (Part 2) healthy males. […] For each comparison, PK parameters were natural log transformed and analyzed using mixed effect modeling with treatment included as a fixed effect and subject as a random effect. Adjusted geometric mean ratios (GMRs) and corresponding 90% CIs were calculated.
Measurement Type: Cmax (ng/mL)
Answers are plain numbers, in ng/mL.

Endpoint output: Cmax of CC(C)NC(=O)COc1cccc(-c2nc(Nc3ccc4[nH]ncc4c3)c3ccccc3n2)c1 [Belumosudil] . Value? 262

---

# Experiment Notes: relative bioavailability/food effect study, tablet and capsule (KD025-106)
# Type: in vivo, human
# Condition Description: male, human, plasma, oral, 200 mg, 200 mg tablet, fasted; read-out: AUC0-24, geometric mean (geometric CV %)
Measurement Type: AUC(0-t) (ng·h/mL)
One number for each entry, in ng·h/mL.

Endpoint output: AUC(0-t) of CC(C)NC(=O)COc1cccc(-c2nc(Nc3ccc4[nH]ncc4c3)c3ccccc3n2)c1 . Value? 4250

---

# Experiment Notes: phase I two-part drug-drug interaction study, plasma pharmacokinetics (Example 1)
# Type: in vivo, human
# Condition Description: male, human, plasma, oral, 200 mg belumosudil BID + omeprazole; read-out: AUC0-24, arithmetic mean (SD)
# Method: The secondary objective was to provide additional information on the safety and tolerability of this dose regimen in healthy males. This was a single center, non-randomized, DDI study in 35 (Part 1) and 38 (Part 2) healthy males. […] For each comparison, PK parameters were natural log transformed and analyzed using mixed effect modeling with treatment included as a fixed effect and subject as a random effect. Adjusted geometric mean ratios (GMRs) and corresponding 90% CIs were calculated.
Measurement Type: AUC from 0 to 24 h (ng·h/mL)
Answers are plain numbers, in ng·h/mL.

Endpoint output: AUC from 0 to 24 h of CC(C)NC(=O)COc1cccc(-c2nc(Nc3ccc4[nH]ncc4c3)c3ccccc3n2)c1 [Belumosudil] . Value? 9100

---

# Experiment Notes: relative bioavailability/food effect study, tablet and capsule (KD025-106)
# Format: in vivo, human
# Condition Description: male, human, plasma, oral, 200 mg, 200 mg tablet, fasted; read-out: AUClast, geometric mean (geometric CV %)
# Method: Both studies were single-center, open-label, randomized, single dose crossover studies in healthy males. In the second, relative bioavailability/food effect study, both the marketed tablets and earlier formulation capsules were investigated. For Treatments B and C, before dosing, subjects consumed a high-fat breakfast consisting of a hash brown, bacon, fried egg, white bread, and 240 mL of full fat milk over 25 minutes. […]
Measurement Type: AUC(0-t) (ng·h/mL)
One number for each entry, in ng·h/mL.

Endpoint output: AUC(0-t) of CC(C)NC(=O)COc1cccc(-c2nc(Nc3ccc4[nH]ncc4c3)c3ccccc3n2)c1 [Belumosudil] . Value? 4520
